Value source: the CheMixHub viscosity set

Protocol notes: xn = mol fraction of the nth substance listed
Setup conditions: 318.15 K; 103 kPa; x1 = 0.1
Item-by-item account of viscosity
# output: bare number, implied unit mPa·s

For orientation, consider the following solved cases.
>>> print(df.to_string())
                                   compound  readout_label  observed_measurement
0  C[Si]1(C)O[Si](C)(C)O[Si](C)(C)O[Si](C)(C)O1 + CCCCCCCCCC      viscosity                 0.664
1  C[Si]1(C)O[Si](C)(C)O[Si](C)(C)O[Si](C)(C)O1 + CCCCCCCCCCCCC      viscosity                 1.139
2  C[Si]1(C)O[Si](C)(C)O[Si](C)(C)O[Si](C)(C)O1 + CCCCCCCCCCCCCC      viscosity                 1.327

# evaluate next
Request: Can you look up the measured viscosity of C[Si]1(C)O[Si](C)(C)O[Si](C)(C)O[Si](C)(C)O1 + CCCCCCCCCCCC for me?
Result: 0.962
